Exercise: state measured pIC50 for each of the compounds provided.
- system_under_test: Human IDO (Homo sapiens, UniProt P14902)
- Construct: High control is Hela cells with IFNγ treatment; endogenous in cells
- Sequence (P14902 whole entry): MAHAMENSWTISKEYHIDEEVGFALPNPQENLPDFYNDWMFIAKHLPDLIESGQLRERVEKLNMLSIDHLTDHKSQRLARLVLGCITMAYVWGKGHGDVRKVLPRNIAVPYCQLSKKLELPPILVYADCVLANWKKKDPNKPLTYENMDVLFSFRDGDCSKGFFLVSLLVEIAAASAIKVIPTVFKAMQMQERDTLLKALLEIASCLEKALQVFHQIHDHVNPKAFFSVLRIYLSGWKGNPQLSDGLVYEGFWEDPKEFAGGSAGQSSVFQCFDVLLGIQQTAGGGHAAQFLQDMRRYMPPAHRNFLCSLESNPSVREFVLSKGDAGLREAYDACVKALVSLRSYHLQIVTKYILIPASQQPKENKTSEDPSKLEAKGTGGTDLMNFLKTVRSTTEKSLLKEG
- method_description: HeLa cell IDO assay (IFNγ-treated cells, N-formylkynurenine by RapidFire/MS/MS)
- condition_notes: 25 ng/ml IFNγ, 200 μM Trp, 48 hours, class symbol
pIC50: −log10 of the molar value.

Using the record for COc1ccc2ncnc([C@H]3CC[C@@]4(CC3)C[C@@H]4C(=O)Nc3ccc(Cl)cc3)c2c1 [Compound 8-4E] , state its measured pIC50.
6.00 to 7.00

For COc1cc2nccc([C@H]3CC[C@@]4(CC3)C[C@@H]4C(=O)Nc3ccc(Cl)cc3)c2cn1 [Compound 8-4F] , write its pIC50.
> 7.00

Look up and state reported pIC50 for O=C(Nc1cccc(C(F)(F)F)c1)[C@H]1C[C@]12CC[C@H](c1ccnc3ccc(F)cc31)CC2 [Compound 1-17]
< 6.00

Report pIC50 for O=C(Nc1ccc(I)cc1F)[C@H]1C[C@]12CC[C@H](c1ccnc3ccc(F)cc31)CC2 (single isomer, unassigned) [Compound 4-9]
> 7.00

Supply measured pIC50 of O=C(Nc1ccc(-n2cccn2)cc1)[C@H]1C[C@]12CC[C@H](c1ccnc3ccc(F)cc31)CC2 [Compound 1-22] in your reply.
6.00 to 7.00

Specify measured pIC50 for O=C(NC1CC2(CCC(c3ccnc4ccc(F)cc34)CC2)C1)c1ccc(Cl)cc1 (single isomer, unassigned) [Compound 17-6] .
> 7.00

Give recorded pIC50. N#Cc1ccc2nccc([C@H]3CC[C@@]4(CC3)C[C@@H]4C(=O)Nc3ccc(Cl)cc3)c2c1 [Compound 8-4B]
> 7.00

Look up and report measured pIC50 for this entry: O=C(N[C@H]1CC2(CC[C@H](c3ccnc4ccncc43)CC2)C1)c1ccc(Cl)cc1 (single isomer, unassigned) [Compound 21-5]
< 6.00

Supply measured pIC50 of O=C(NC1CCC12CCC(c1ccnc3ccc(F)cc13)CC2)c1ccc(Cl)cc1 (stereo not shown) [Compound 14-7] in your reply.
< 6.00

Hello, please tell me recorded pIC50 for this one: COc1cc2nccc([C@H]3CC[C@@]4(CC3)C[C@@H]4C(=O)Nc3ccc(Cl)cc3)c2cc1OC [Compound 8-4C]
> 7.00

Give reported pIC50 value for O=C(Nc1ccc(Cl)nc1)[C@H]1C[C@]12CC[C@H](c1ccnc3ccc(F)cc31)CC2 [Compound 1-23]
> 7.00

State its pIC50: O=C(NC1CC12CCC(c1ccnc3ccc(F)cc13)CC2)c1ccc(Cl)cc1 (single isomer, unassigned) [Compound 9-5]
< 6.00

Could you please provide reported pIC50 for O=C(NCc1ccc(Cl)cc1)[C@H]1C[C@]12CC[C@H](c1ccnc3ccc(F)cc31)CC2 [Compound 1-21] ? Thanks!
< 6.00

Identify pIC50 associated with the compound O=C(Nc1ccc(Cl)cc1)C1CC12CCC(c1ccnc3ccc(F)cc13)CC2 (single isomer, unassigned) [Compound 1-11]
< 6.00

Look up and report measured pIC50 for this entry: O=C(Nc1ccc(Cl)cc1)C1CC12CCC(c1ccnc3ccncc13)CC2 (racemic) [Compound 6-9]
> 7.00

# return recorded pIC50 for input O=C(Nc1ccc(Cl)cc1)C1CC12CCC(c1ccnc3ccc(F)cc13)CC2 (stereo not shown) [Compound 5-4]
6.00 to 7.00

Read the entry O=C(Nc1ccc(Cl)c(F)c1)[C@H]1C[C@]12CC[C@H](c1ccnc3ccc(F)cc31)CC2 [Compound 1-19] and write its reported pIC50.
> 7.00

Dear colleague, please send me the reported pIC50 for O=C(Nc1ccc(F)cc1)[C@H]1C[C@]12CC[C@H](c1ccnc3ccc(F)cc31)CC2 [Compound 1-12] when you can.
> 7.00

Please list pIC50 recorded for the compound O=C(N[C@H]1CC2(CC[C@H](c3ccnc4ccncc43)CC2)C1)c1ccc(Cl)cc1 (single isomer, unassigned) [Compound 21-4]
> 7.00

Supply recorded pIC50 for O=C(NC1(C2CCN(c3ccnc4ccc(F)cc34)CC2)CC1)c1ccc(Cl)cc1 [Compound 27-3] here.
6.00 to 7.00

Provide pIC50 value for the following compound: O=C(Nc1ccc(Cl)cc1)C1CC2(CCC(c3ccnc4ccncc34)CC2)C1 (single isomer, unassigned) [Compound 20-9]
< 6.00

Identify measured pIC50 associated with CC1(C(=O)Nc2ccc(Cl)cc2)CC12CCC(c1ccnc3ccc(F)cc13)CC2 (single isomer, unassigned) [Compound 11-5]
> 7.00

Quickly give me recorded pIC50 for O=C(Nc1ccc(C2CC2)cc1)[C@H]1C[C@]12CC[C@H](c1ccnc3ccc(F)cc31)CC2 [Compound 1-13]
6.00 to 7.00

Output measured pIC50 for this item: O=C(Nc1ccc(Cl)cc1)C1CC12CCC(c1ccnc3ccc(F)cc13)CC2 (single isomer, unassigned) [Compound 1-10]
> 7.00

Give pIC50 for O=C(NC1CC12CCN(c1ccnc3ccc(F)cc13)CC2)c1ccc(Cl)cc1 (stereo not shown) [Compound 13-3]
6.00 to 7.00

Name the recorded pIC50 of the compound listed here: N#Cc1ccc(NC(=O)[C@H]2C[C@]23CC[C@H](c2ccnc4ccc(F)cc42)CC3)nc1 [Compound 3-3]
6.00 to 7.00

Please give the documented pIC50 of O=C(Nc1ccc(Cl)cc1)C1CCC12CCC(c1ccnc3ccc(F)cc13)CC2 (stereo not shown) [Compound 15-3]
< 6.00

Supply reported pIC50 belonging to this compound: O=C(Nc1ccc(Cl)cc1)C1(C2CCC(c3ccnc4ccncc34)CC2)CC1 (stereo not shown) [Compound 28-5]
> 7.00
